B1: Protein S100-G, residues 1 to 79; numbered along this chain, P02633 (parent)
chain: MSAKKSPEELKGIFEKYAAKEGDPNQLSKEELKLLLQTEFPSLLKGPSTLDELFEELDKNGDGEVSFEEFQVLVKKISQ

Variants of: B1
Assay: abundance fitness (aPCA) (normalised: wild type 0, dead -1); higher = more abundant; growth selection in yeast, the domain comes from the species named
Settings: Bos taurus
quantity: abundance fitness
Please state the value as a number alone, without comment.

residue-string | abundance fitness
MSAKKSPEELKGIFEKYAAKEGDPNQLSKEELKLLLQTEFPSLLKGPSTLDELFEELQKNGDGEVSFEEFQVLVKKISQ [D58Q] | 0.068
MSAKKSPEELKGNFEKYAAKEGDPNQLSKEELKLLLQTEFPSLLKGPSTLDELFEELDKNGDGEVSFEEFQVLVKKISQ [I13N] | -0.631
MSAKKSPEELKGIFEKYAAKEGDPNQLSKEELKLLLQTETPSLLKGPSTLDELFEELDKNGDGEVSFEEFQVLVKKISQ [F40T] | -0.106
MSAKKSPEELKGIFEKYAAKEGDPNQLSKEELKLLLQTEFPSLLKGPSTLDELFEELDKNGDGEVSFEEFQVLVKKIYQ [S78Y] | -1.23
MSAKKSPEELKGIFEKYAAKEGDPNQLSKEELKLLLQTEFPSLLKGPSTLDELFEELDKNGDGHVSFEEFQVLVKKISQ [E64H] | 0.048
MSAKKSPEELKGIFEKYAAKEGDPNQLSKEELKLLLQTEFPSLLKGPSTLDELFEELDKNGDGEVSEEEFQVLVKKISQ [F67E] | -0.063
MSAKKSPEELKGIFEKYAAKEGDPNQLSEEELKLLLQTEFPSLLKGPSTLDELFEELDKNGDGEVSFEEFQVLVKKISQ [K29E] | -0.14
MSAKKSPEELKGIFEKYAAKEGDPNQLSKNELKLLLQTEFPSLLKGPSTLDELFEELDKNGDGEVSFEEFQVLVKKISQ [E30N] | 0.061

Now consider a different variant.
Using the record for MSAKKSPEELKGIFEKYAAKEGDPNQLSKEELKLLLQTEFPSLLKGPSTLDELVEELDKNGDGEVSFEEFQVLVKKISQ [F54V] , report its abundance fitness.
-0.015
